experiment: HPLC-based logD determination; type: physicochemical; conditions: RP-HPLC, Prodigy 5 μm C8 column, isocratic 52.5% MeCN/20 mM NH4OAc, reference compounds, n = 3 to 6, read-out: logD Prodigy 5 μ C8 Isocratic
ASSAY READOUT: chromatographic logD
Number only, please.

I would be grateful if you could share the reported chromatographic logD for O=C(CCc1nc(-c2ccc(F)cc2Br)no1)Nc1ccc2c(c1)c1ccccc1n2CCF [Compound 1] .
3.86

---

assay: HPLC-based logD determination; assay type: physicochemical; details: RP-HPLC, isocratic 52.5% MeCN/20 mM NH4OAc, reference compounds, n = 3 to 6; read-out: logD Prodigy 5 μ C8 Isocratic
ASSAY READOUT: chromatographic logD

I would be grateful if you could share the reported chromatographic logD for CCn1c2ccccc2c2cc(NC(=O)CCc3nc(-c4ccc(F)cc4Br)no3)ccc21 .
4.4

---

test: In vivo metabolism of [18F]17 and uptake of [18F]10; design: species or system CD1 mice; conditions: mouse, plasma, iv; after i.v. 100 to 200 kBq [18F]17, female CD1 mice; read-out: uptake, Plasma, 30 min p.i.
ASSAY READOUT: tissue uptake at 0.5 h (%ID/g)
Record the value in %ID/g, omitting the unit from your answer.

I would be grateful if you could share the reported tissue uptake at 0.5 h for O=C(O)CCc1nc(-c2ccc([18F])cc2Br)no1 [[^18F]10] .
18.2

---

assay: In vivo metabolism of [18F]17 and uptake of [18F]10; design: species or system CD1 mice; settings: mouse, brain, iv; after i.v. 100 to 200 kBq [18F]17, female CD1 mice; read-out: uptake, Brain, 30 min p.i.
ASSAY READOUT: tissue uptake at 0.5 h (%ID/g)
Record the value in %ID/g, omitting the unit from your answer.

I would be grateful if you could share the reported tissue uptake at 0.5 h for O=C(O)CCc1nc(-c2ccc([18F])cc2Br)no1 [[^18F]10] .
0.28

---

assay: HPLC-based logD determination; format: physicochemical; settings: RP-HPLC, isocratic 60% MeCN/20 mM NH4OAc, reference compounds, n = 3 to 6; read-out: logD Reposil-Pur C18-AQ Isocratic
ASSAY READOUT: chromatographic logD

I would be grateful if you could share the reported chromatographic logD for CCn1c2ccccc2c2cc(NC(=O)CCc3nc(-c4ccc(F)cc4Br)no3)ccc21 .
4.87

---

This section presents compounds with their documented Ki values.
molecular target: UniProtKB P34972; assay: In vitro CB receptor affinity assay, displacement of [3H]CP55,940, CHO cells transfected with human CB2R; assay type: binding
Sequence (P34972 whole entry): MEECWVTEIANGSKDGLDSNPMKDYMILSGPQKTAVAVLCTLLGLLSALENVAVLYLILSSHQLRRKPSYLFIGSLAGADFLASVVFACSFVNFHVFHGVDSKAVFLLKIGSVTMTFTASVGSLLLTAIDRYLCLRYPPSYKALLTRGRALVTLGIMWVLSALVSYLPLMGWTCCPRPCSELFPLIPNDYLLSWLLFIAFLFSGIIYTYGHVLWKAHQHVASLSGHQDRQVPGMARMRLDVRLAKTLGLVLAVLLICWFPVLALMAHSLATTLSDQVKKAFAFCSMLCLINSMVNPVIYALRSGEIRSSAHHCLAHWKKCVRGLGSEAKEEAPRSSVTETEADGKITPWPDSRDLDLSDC
The reply should consist of the numeric value with the unit placed after it.

* O=C(CCc1nc(-c2ccc(F)cc2Br)no1)Nc1ccc2c(c1)c1ccccc1n2CCF [Compound 1] | 2.32 nM

Consider the additional compound presented here.
I would be grateful if you could share the reported Ki for CCn1c2ccccc2c2cc(NC(=O)CCc3nc(-c4ccc(F)cc4Br)no3)ccc21 [Compound 2] .
4.27 nM

---

target: human CB1R (Homo sapiens, UniProt P21554); assay: In vitro CB receptor affinity assay, displacement of [3H]CP55,940, CHO cells transfected with human CB1R; format: binding
Sequence (P21554 whole entry): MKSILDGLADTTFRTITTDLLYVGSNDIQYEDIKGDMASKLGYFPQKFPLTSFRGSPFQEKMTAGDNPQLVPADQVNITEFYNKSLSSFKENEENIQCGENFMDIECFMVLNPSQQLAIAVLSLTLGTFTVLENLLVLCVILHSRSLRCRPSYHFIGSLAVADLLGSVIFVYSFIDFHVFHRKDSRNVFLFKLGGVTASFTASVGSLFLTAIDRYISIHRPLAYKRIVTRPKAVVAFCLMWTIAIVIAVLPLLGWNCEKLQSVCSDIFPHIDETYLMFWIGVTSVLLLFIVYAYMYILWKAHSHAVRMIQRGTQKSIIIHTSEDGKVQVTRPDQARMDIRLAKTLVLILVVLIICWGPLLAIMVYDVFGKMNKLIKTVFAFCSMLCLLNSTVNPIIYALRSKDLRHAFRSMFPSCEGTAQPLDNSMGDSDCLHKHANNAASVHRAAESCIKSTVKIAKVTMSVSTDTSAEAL
pKi: −log10 of the molar value.
ASSAY READOUT: pKi

What pKi appears in the records for this compound with human CB1R (Homo sapiens, UniProt P21554)? O=C(CCc1nc(-c2ccc(F)cc2Br)no1)Nc1ccc2c(c1)c1ccccc1n2CCF [Compound 1]
< 6.00

src = paper PMC3856494
